B1: ATL3 (parent)
chain: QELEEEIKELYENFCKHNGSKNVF

Variants of: B1
Assay Text: protein stability index of a GFP-peptide fusion (GPS, HEK-293T) (PSI 1-6); higher = more stable;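 further: lentivirally expressed fusions sorted by FACS into six bins by GFP to DsRed ratio, PSI derived from sequencing read proportions per bin multiplied by bin number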
Conditions Used: c terminus: a fixed tail appended
Classify as follows. Reported protein stability index greater than or equal to 3: Satisfied. Reported protein stability index below: Not satisfied.

Sequence Input: QELETEIKELYENFCKHNGSKNVF
Label Value: Not satisfied
--
Sequence Input: QELEEEIKELYENFCKHNESKNVF
Label Value: Not satisfied
--
Sequence Input: QELEEEIKELYEVFCKHNGSKNVF
Label Value: Not satisfied
--
Sequence Input: QELEEEIKEEYENFCKHNGSKNVF
Label Value: Satisfied
--
Sequence Input: QELKEEIKELYENFCKHNGSKNVF
Label Value: Not satisfied
--
Sequence Input: QELEEEIKELYENFCKHNGSKNVY
Label Value: Not satisfied
--
Sequence Input: QELEEEIKELYENFCKHNGSKTVF
Label Value: Not satisfied
--
Sequence Input: QELEEEIKELHENFCKHNGSKNVF
Label Value: Satisfied
--
Sequence Input: IELEEEIKELYENFCKHNGSKNVF
Label Value: Not satisfied
--
Sequence Input: QELEEEIKELYENFCKHNGSKDVF
Label Value: Not satisfied
--
Sequence Input: QNLEEEIKELYENFCKHNGSKNVF
Label Value: Satisfied
--
Sequence Input: QELEEEIKELYENFCKHNGMKNVF
Label Value: Not satisfied
